For each entry below, report its inhibition of SARS-CoV-2 cytopathic effect value.
Test system: Vero E6 infected with SARS-CoV-2
TEST DETAILS: inhibition of SARS-CoV-2 cytopathic effect; higher = more antiviral protection, active = above 15
PARTICULARS: 833.33 nM; 48 h

Req: Given the entry CC1C(=O)OC2C(O)C34C5CC(C(C)(C)C)C36C(OC(=O)C6O)OC4(C(=O)O5)C12O (centres undefined) [ginkgolide-B] , report its measured inhibition of SARS-CoV-2 cytopathic effect.
Resp: 2.69% (inactive)

Req: Which inhibition of SARS-CoV-2 cytopathic effect value is on record for COc1ccc(Cc2nccc3cc(OC)c(OC)cc23)cc1OC ?
Resp: -2.94% (inactive)

Req: Look up inhibition of SARS-CoV-2 cytopathic effect for this molecule: CC1(C)NC(=O)N(c2ccc([N+](=O)[O-])c(C(F)(F)F)c2)C1=O [nilutamide]
Resp: -2.17% (inactive)

Req: Requested field: inhibition of SARS-CoV-2 cytopathic effect. Item: CCc1c(O)cc(O)c(C(=O)c2ccc(OCCN3CCOCC3)c(OC)c2)c1CC(=O)N(CCOC)CCOC
Resp: -1.17% (inactive)

Req: Endpoint output: inhibition of SARS-CoV-2 cytopathic effect of CCCCOCCOc1nc(-c2ccc(C(=O)O)c(F)c2)sc1C . Value?
Resp: -1.76% (inactive)

Req: Can you look up the measured inhibition of SARS-CoV-2 cytopathic effect of COc1cc(C)[nH]c(=O)c1CNC(=O)c1c(C)n([C@H](C)C2CCOCC2)c2ccccc12 for me?
Resp: -4.34% (inactive)

Req: I am curious: what inhibition of SARS-CoV-2 cytopathic effect value has been reported for O=C(OOC(=O)c1ccccc1)c1ccccc1 [benzoyl-peroxide] ?
Resp: -1.86% (inactive)

Req: Bench note: what inhibition of SARS-CoV-2 cytopathic effect did Clc1cccc(Nc2nnc(-c3ccccc3)c3ccccc23)c1 show?
Resp: 1.98% (inactive)

Req: Name the recorded inhibition of SARS-CoV-2 cytopathic effect for Cc1cccc(C)c1NC(=O)[C@@H](C)N [tocainide] .
Resp: 1.04% (inactive)

Req: Any idea what its inhibition of SARS-CoV-2 cytopathic effect is? The molecule is N=C(N)NCCC[C@H](NC(=O)[C@@H]1CCCN1C(=O)[C@@H]1CSSC[C@H](N)C(=O)N[C@@H](Cc2ccc(O)cc2)C(=O)N[C@@H](Cc2ccccc2)C(=O)N[C@@H](CCC(N)=O)C(=O)N[C@@H](CC(N)=O)C(=O)N1)C(=O)NCC(N)=O
Resp: 0.05% (inactive)

Req: Sample CC1(COc2ccc(CC3SC(=O)NC3=O)cc2)CCCCC1 (centres undefined) — what was its inhibition of SARS-CoV-2 cytopathic effect?
Resp: 3.16% (inactive)

Req: Quick one: inhibition of SARS-CoV-2 cytopathic effect of Nc1ncnc2[nH]nc(Nc3ccc(F)cc3)c12 ?
Resp: -0.59% (inactive)

Req: Look up inhibition of SARS-CoV-2 cytopathic effect: CCCCCCCCCCCCCCCC=O
Resp: -0.08% (inactive)

Req: What value of measured inhibition of SARS-CoV-2 cytopathic effect is listed for CC(C)[C@H](CO)Nc1nc(Nc2cc(N)cc(Cl)c2)c2ncn(C(C)C)c2n1 ?
Resp: -0.35% (inactive)

Req: Given the entry Nc1ncnc2c1c(-c1cccc(OCc3ccccc3)c1)cn2C1CC(CN2CCCC2)C1 (stereo in doubt) , report its measured inhibition of SARS-CoV-2 cytopathic effect.
Resp: 0.14% (inactive)

Req: Name the recorded inhibition of SARS-CoV-2 cytopathic effect for CC1=C(/C=C/C(C)=C/C=C/C(C)=C/C=O)C(C)(C)CCC1 .
Resp: 6.75% (inactive)

Req: For O=C(N[C@@H]1CC[C@@H](c2cccc(F)c2F)CN(CC(F)(F)F)C1=O)N1CCC(n2c(=O)[nH]c3ncccc32)CC1 , what is its reported inhibition of SARS-CoV-2 cytopathic effect?
Resp: 2.53% (inactive)

Req: Which value of inhibition of SARS-CoV-2 cytopathic effect has been reported for O=C(OCCN1CCOCC1)C1(c2ccccc2)CCCCC1 in the records?
Resp: 4.21% (inactive)

Req: Reported inhibition of SARS-CoV-2 cytopathic effect, molecule S=C(S)N1CCCC1 [pyrrolidine-dithiocarbamate] : ____
Resp: 12.7% (inactive)

Req: Given CC1=NN=C(c2ccc(N)cc2)c2cc3c(cc2C1)OCO3 , state its recorded inhibition of SARS-CoV-2 cytopathic effect.
Resp: 2.88% (inactive)

Req: Value lookup for inhibition of SARS-CoV-2 cytopathic effect; key = N#Cc1ccc(COC[C@H]2O[C@@H](n3c(NCc4ccc(Cl)c(Cl)c4)nc4c(N)ncnc43)[C@H](O)[C@@H]2O)cc1
Resp: -0.44% (inactive)

Req: Dear colleague, I am looking for the recorded inhibition of SARS-CoV-2 cytopathic effect of the following molecule: Nc1nc2cc(-c3ccc4ncc(C(=O)N5CCOCC5)n4c3)ccc2o1
Resp: 3.05% (inactive)

Req: Endpoint output: inhibition of SARS-CoV-2 cytopathic effect of CC1(C)OC(=O)C(OCC2CC2)=C1c1ccc(S(C)(=O)=O)cc1 . Value?
Resp: 0.04% (inactive)

Req: Fill in the blank: the reported inhibition of SARS-CoV-2 cytopathic effect of CCN1CCC[C@H]1CNC(=O)c1c(O)c(Cl)cc(Cl)c1OC [raclopride] is ____.
Resp: -2.68% (inactive)

Req: Look up inhibition of SARS-CoV-2 cytopathic effect for this molecule: COc1cc(-c2cc(-c3cccc(O)c3)cnc2N)cc(OC)c1OC
Resp: 1.55% (inactive)

Req: Which inhibition of SARS-CoV-2 cytopathic effect value is on record for O=C1c2ccccc2C(=O)c2ccccc21 ?
Resp: 1.54% (inactive)

Req: inhibition of SARS-CoV-2 cytopathic effect for C[N+]1([O-])[C@@H]2C[C@@H](OC(=O)[C@H](CO)c3ccccc3)C[C@H]1[C@@H]1O[C@@H]12 (some centres undefined) [scopolamine-N-oxide] ?
Resp: 13.6% (inactive)

Req: Tell me the measured inhibition of SARS-CoV-2 cytopathic effect of CCOC(N)=O , please.
Resp: -2.2% (inactive)

Req: Requested field: inhibition of SARS-CoV-2 cytopathic effect. Item: COc1ccccc1CC(=N)N1C[C@@H]2C(=O)CCC(c3ccccc3)(c3ccccc3)[C@@H]2C1
Resp: 3.76% (inactive)
